- System: LG0567-F671-PDC multi-cell spheroid viability
- test: Anticancer human tumor LG0567-F671-PDC patient-derived lung adenocarcinoma cell line growth inhibition [IpAb]
- measurement-context: second compound 0.1 µM; first compound 0.0316 µM; hits give low values
# strict inequality: viability, T/C < 60% yields satisfied, everything else yields not satisfied

CC1(C)CCC(CN2CCN(c3ccc(C(=O)NS(=O)(=O)c4ccc(NCC5CCOCC5)c([N+](=O)[O-])c4)c(Oc4cnc5[nH]ccc5c4)c3)CC2)=C(c2ccc(Cl)cc2)C1 + CCN1CCN(Cc2ccc(Nc3ncc(F)c(-c4cc(F)c5nc(C)n(C(C)C)c5c4)n3)nc2)CC1 | not satisfied
C=CCn1c(=O)c2cnc(Nc3ccc(N4CCN(C)CC4)cc3)nc2n1-c1cccc(C(C)(C)O)n1 + CCN1CCN(Cc2ccc(Nc3ncc(F)c(-c4cc(F)c5nc(C)n(C(C)C)c5c4)n3)nc2)CC1 | not satisfied
COc1c(OCCCN2CCOCC2)ccc2c3n(c(=NC(=O)c4cnc(N)nc4)nc12)CCN3 + CCN1CCN(Cc2ccc(Nc3ncc(F)c(-c4cc(F)c5nc(C)n(C(C)C)c5c4)n3)nc2)CC1 | not satisfied
CC(C)n1nc(-c2ccc3oc(N)nc3c2)c2c(N)ncnc21 + CCN1CCN(Cc2ccc(Nc3ncc(F)c(-c4cc(F)c5nc(C)n(C(C)C)c5c4)n3)nc2)CC1 | satisfied

Continue with the next molecule.
Q: A record lists Cn1ncnc1[C@H]1c2n[nH]c(=O)c3cc(F)cc(c23)N[C@@H]1c1ccc(F)cc1 + CCN1CCN(Cc2ccc(Nc3ncc(F)c(-c4cc(F)c5nc(C)n(C(C)C)c5c4)n3)nc2)CC1 . Is its viability, T/C below 60%?
Ans: satisfied

* * *

- System: LG0567-F671-PDC multi-cell spheroid viability
- test: Anticancer human tumor LG0567-F671-PDC cell line growth inhibition [IpAb]; active = viability on the fitted dose curve at most 10% of control; inactive = the rest
- measurement-context: second compound 0.1 µM; first compound 3 µM
Form entry, call: pick from active, inactive

CC(C)(C)c1cnc(CSc2cnc(NC(=O)C3CCNCC3)s2)o1 + CCN1CCN(Cc2ccc(Nc3ncc(F)c(-c4cc(F)c5nc(C)n(C(C)C)c5c4)n3)nc2)CC1 | active
Cn1cnc2c(F)c(Nc3ccc(Br)cc3Cl)c(C(=O)NOCCO)cc21 + CCN1CCN(Cc2ccc(Nc3ncc(F)c(-c4cc(F)c5nc(C)n(C(C)C)c5c4)n3)nc2)CC1 | inactive
Cn1cnc2c(F)c(Nc3ccc(Br)cc3Cl)c(C(=O)NOCCO)cc21 + CC(C)NCC(C(=O)N1CCN(c2ncnc3c2C(C)CC3O)CC1)c1ccc(Cl)cc1 | inactive

Kindly review the next compound as well.
Q: State the result this test recorded for CC(C)(C)c1cnc(CSc2cnc(NC(=O)C3CCNCC3)s2)o1 + CC(C)NCC(C(=O)N1CCN(c2ncnc3c2C(C)CC3O)CC1)c1ccc(Cl)cc1 .
Ans: active

* * *

- Test system: LG0567-F671-PDC multi-cell spheroid viability
- test: Anticancer human tumor LG0567-F671-PDC cell line growth inhibition [IpAb];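 further: viability read after 7 days of drug exposure; 100% = DMSO vehicle control luminescence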
- measurement-context: second compound 0.316 µM; first compound 0.03 µM; hits give low values
measured-metric: viability, T/C (%)
Give the quantity in %, number only.

Q: Determine from records and report viability, T/C for CC(C)(C)c1cnc(CSc2cnc(NC(=O)C3CCNCC3)s2)o1 + CCN1CCN(Cc2ccc(Nc3ncc(F)c(-c4cc(F)c5nc(C)n(C(C)C)c5c4)n3)nc2)CC1
Ans: 73.7

Q: Could you please provide reported viability, T/C for CC(=O)c1c(C)c2cnc(Nc3ccc(N4CCNCC4)cn3)nc2n(C2CCCC2)c1=O + CCN1CCN(Cc2ccc(Nc3ncc(F)c(-c4cc(F)c5nc(C)n(C(C)C)c5c4)n3)nc2)CC1 ? Thanks!
Ans: 49.4

Q: Look up and state reported viability, T/C for CC(C)(C)c1cnc(CSc2cnc(NC(=O)C3CCNCC3)s2)o1 + CC(C)NCC(C(=O)N1CCN(c2ncnc3c2C(C)CC3O)CC1)c1ccc(Cl)cc1
Ans: 111

Q: Respond only with viability, T/C recorded for Cn1cnc2c(F)c(Nc3ccc(Br)cc3Cl)c(C(=O)NOCCO)cc21 + CCN1CCN(Cc2ccc(Nc3ncc(F)c(-c4cc(F)c5nc(C)n(C(C)C)c5c4)n3)nc2)CC1
Ans: 29.9

Q: Fill in viability, T/C for record Cn1cnc2c(F)c(Nc3ccc(Br)cc3Cl)c(C(=O)NOCCO)cc21 + CC(C)NCC(C(=O)N1CCN(c2ncnc3c2C(C)CC3O)CC1)c1ccc(Cl)cc1
Ans: 32.4

Q: Please report viability, T/C for the following molecule: CC(=O)c1c(C)c2cnc(Nc3ccc(N4CCNCC4)cn3)nc2n(C2CCCC2)c1=O + CC(C)NCC(C(=O)N1CCN(c2ncnc3c2C(C)CC3O)CC1)c1ccc(Cl)cc1
Ans: 61.3

* * *

- System: LG0567-F671-PDC multi-cell spheroid viability
- test: Anticancer human tumor LG0567-F671-PDC cell line growth inhibition [IpAb];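 further: viability read after 7 days of drug exposure; 100% = DMSO vehicle control luminescence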
- measurement-context: second compound 1 µM; first compound 0.000316 µM; hits give low values
- Experimental: Combinatorial screen of targeted agents with ipatasertib and abemaciclib in multi-cell type tumor spheroids […] Compounds. […] If the clinical Cmax for an agent had not been determined, the highest concentration tested was 10 microM. NCI60 Cell Culture. […] The optimal seeding densities for each of the cell lines at each time point assessed were determined prior to performing the concentration response studies. […]
# Lookup of reported viability, T/C keyed by entry
Answer in %, number only, no unit symbol.

Cn1ncnc1[C@H]1c2n[nH]c(=O)c3cc(F)cc(c23)N[C@@H]1c1ccc(F)cc1 + CCN1CCN(Cc2ccc(Nc3ncc(F)c(-c4cc(F)c5nc(C)n(C(C)C)c5c4)n3)nc2)CC1 | 61.9
Cn1ncnc1[C@H]1c2n[nH]c(=O)c3cc(F)cc(c23)N[C@@H]1c1ccc(F)cc1 + CC(C)NCC(C(=O)N1CCN(c2ncnc3c2C(C)CC3O)CC1)c1ccc(Cl)cc1 | 73.6
CC(C)n1nc(-c2ccc3oc(N)nc3c2)c2c(N)ncnc21 + CC(C)NCC(C(=O)N1CCN(c2ncnc3c2C(C)CC3O)CC1)c1ccc(Cl)cc1 | 70.3

# next molecule below
Q: Give me measured viability, T/C, please, for this molecule: CC(C)n1nc(-c2ccc3oc(N)nc3c2)c2c(N)ncnc21 + CCN1CCN(Cc2ccc(Nc3ncc(F)c(-c4cc(F)c5nc(C)n(C(C)C)c5c4)n3)nc2)CC1
Ans: 57.1

* * *

viability, T/C listing for selected molecules.
- Tested on: LG0567-F671-PDC multi-cell spheroid viability
- test: Anticancer human tumor LG0567-F671-PDC cell line growth inhibition [IpAb];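 further: viability read after 7 days of drug exposure; 100% = DMSO vehicle control luminescence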
- measurement-context: second compound 3.16 µM; first compound 0.0316 µM; hits give low values
Numeric only. Scale: %

Cn1ncc(Cl)c1-c1cc(C(=O)NC(CN)Cc2cccc(F)c2)sc1Cl (stereo not given) + CC(C)NCC(C(=O)N1CCN(c2ncnc3c2C(C)CC3O)CC1)c1ccc(Cl)cc1 | 70
Cn1ncnc1[C@H]1c2n[nH]c(=O)c3cc(F)cc(c23)N[C@@H]1c1ccc(F)cc1 + CC(C)NCC(C(=O)N1CCN(c2ncnc3c2C(C)CC3O)CC1)c1ccc(Cl)cc1 | 53.6
COc1c(OCCCN2CCOCC2)ccc2c3n(c(=NC(=O)c4cnc(N)nc4)nc12)CCN3 + CC(C)NCC(C(=O)N1CCN(c2ncnc3c2C(C)CC3O)CC1)c1ccc(Cl)cc1 | 46.5
C=CC(=O)N1CCN(c2nc(=O)n(-c3c(C)ccnc3C(C)C)c3nc(-c4c(O)cccc4F)c(F)cc23)C(C)C1 (stereo not given) + CC(C)NCC(C(=O)N1CCN(c2ncnc3c2C(C)CC3O)CC1)c1ccc(Cl)cc1 | 14.9

Q: Entry Cn1nccc1Nc1nccc(-c2ccn(C(CO)c3ccc(Cl)c(F)c3)c(=O)c2)n1 (stereo not given) + CC(C)NCC(C(=O)N1CCN(c2ncnc3c2C(C)CC3O)CC1)c1ccc(Cl)cc1 needs its viability, T/C filled in; supply it.
Ans: 67.2

* * *

- System: LG0567-F671-PDC multi-cell spheroid viability
- test: Anticancer human tumor LG0567-F671-PDC cell line growth inhibition [IpAb];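 further: viability read after 7 days of drug exposure; 100% = DMSO vehicle control luminescence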
- measurement-context: second compound 0.0316 µM; first compound 0.316 µM; hits give low values
viability, T/C values, listed per item
Enter your answer as a number in %; do not include the unit.

C=CC(=O)N1CCN(c2nc(=O)n(-c3c(C)ccnc3C(C)C)c3nc(-c4c(O)cccc4F)c(F)cc23)C(C)C1 (stereo not drawn) + CCN1CCN(Cc2ccc(Nc3ncc(F)c(-c4cc(F)c5nc(C)n(C(C)C)c5c4)n3)nc2)CC1 | 15.7

Q: Recall and state the measured viability, T/C for COc1c(OCCCN2CCOCC2)ccc2c3n(c(=NC(=O)c4cnc(N)nc4)nc12)CCN3 + CCN1CCN(Cc2ccc(Nc3ncc(F)c(-c4cc(F)c5nc(C)n(C(C)C)c5c4)n3)nc2)CC1 .
Ans: 34.5

Q: Annotate the compound Cn1nccc1Nc1nccc(-c2ccn(C(CO)c3ccc(Cl)c(F)c3)c(=O)c2)n1 (stereo not drawn) + CCN1CCN(Cc2ccc(Nc3ncc(F)c(-c4cc(F)c5nc(C)n(C(C)C)c5c4)n3)nc2)CC1 with its measured viability, T/C.
Ans: 45.9

Data credit: PubChem BioAssay AID2060332
